Counter-ions that a name gives are not always drawn.
Measured attribute: melting point

| Molecule | melting point |
| --- | --- |
| CC(CN1CCC[C@@H](C(=O)O)C1)=C1c2ccccc2CCc2ccccc21.Cl (hydrate or solvate) | 151 to 155 °C |
| CN(CCN1CCC[C@@H](C(=O)O)C1)C1c2ccccc2CCc2ccccc21 (hydrate or solvate) [Example 30] | 187 to 190 °C |
| CCCC(CN1CCC[C@@H](C(=O)O)C1)CN1c2ccccc2CCc2ccccc21.Cl (stereo partly shown) (hydrate or solvate) | 116 to 120 °C |

Give one value of melting point per listed molecule.
1. Cl.O=C(O)[C@@H]1CCCN(Cc2ccc(C3c4ccccc4CCc4ccccc43)cc2)C1
2. CC(CCN1c2ccccc2CCc2ccccc21)N1CCC[C@@H](C(=O)O)C1.Cl (stereo partly shown) (hydrate or solvate)
3. O=C(O)[C@@H]1CCCN(CC#CCN2c3ccccc3CCc3ccccc32)C1 (hydrate or solvate) [Example 10]
4. CC(CN1c2ccccc2CCc2ccccc21)N1CCC[C@@H](C(=O)O)C1.Cl (stereo partly shown) (hydrate or solvate)
5. O=C(O)[C@@H]1CCCN(C(=O)CC=C2c3ccccc3CCc3ccccc32)C1 [Example 5]
6. CC(CN1c2ccccc2CCc2ccccc21)CN1CCCCC1C(=O)O (stereo not shown) (as salt: hydrochloride) (hydrate or solvate) [Example 3]
7. Cl.O=C(O)[C@@H]1CCCN(CCC(=O)N2c3ccccc3CCc3ccccc32)C1 (hydrate or solvate)

Ans.
1: 167 to 175 °C; 2: 214 to 218 °C; 3: 153 to 154 °C; 4: 213 to 223 °C; 5: 71 to 76 °C; 6: 201 to 216 °C; 7: 180 to 183 °C
